assay: Selectivity index, ratio of IC50 for african green monkey Vero cells to MIC for non-replicating Mycobacterium tuberculosis; type: functional
METRIC: Selectivity ratio

Guide cases for Selectivity ratio, answers given:
COMPOUND	Selectivity ratio
CO[C@H]1/C=C/O[C@@]2(C)Oc3c(C)c(O)c4c(c3C2=O)C2=NC3(CCN(CC(C)C)CC3)NC2=C(NC(=O)/C(C)=C\C=C\[C@H](C)[C@H](O)[C@@H](C)[C@@H](O)[C@@H](C)[C@H](O)[C@@H]1C)C4=O	>161
CO[C@H]1/C=C/O[C@@]2(C)Oc3c(C)c(O)c4c(c3C2=O)C2=NC3(CCN(CC(C)C)CC3)NC2=C(NC(=O)/C(C)=C\C=C\[C@H](C)[C@H](O)[C@@H](C)[C@@H](O)[C@@H](C)[C@H](OC(C)=O)[C@@H]1C)C4=O [RIFABUTIN]	>582
CCCCCCCCCCCCCCCC(=O)N1C2=C3NC(=O)/C(C)=C\C=C\[C@H](C)[C@H](O)[C@@H](C)[C@@H](O)[C@@H](C)[C@H](OC(C)=O)[C@H](C)[C@@H](OC)/C=C/O[C@@]4(C)Oc5c(C)c(O)c(c(c5C4=O)C2=NC12CCN(CC(C)C)CC2)C3=O	>32

Shifting focus to the compound that follows.
Give its Selectivity ratio value. Item: CO[C@H]1/C=C/O[C@@]2(C)Oc3c(C)c(O)c4c(O)c(c(/C=N/N5CCN(C)CC5)c(O)c4c3C2=O)NC(=O)/C(C)=C\C=C\[C@H](C)[C@H](O)[C@@H](C)[C@@H](O)[C@@H](C)[C@H](OC(C)=O)[C@@H]1C [RIFAMPIN]
98

---

test system: Mycobacterium avium; assay: Antimycobacterial activity against Mycobacterium avium 1581 at 0.4 mg/mL after 15 days relative to control; assay type: functional; conditions: 360 h
Measured inhibition at 400 µg/mL accompanies every entry in the list below.

Guide cases for inhibition at 400 µg/mL, answers given:
COMPOUND	inhibition at 400 µg/mL
CO[C@H]1/C=C/O[C@@]2(C)Oc3c(C)c(O)c4c(c3[C@H]2O)C2=NC3(CC[N+]([O-])(CC(C)C)CC3)NC2=C(NC(=O)/C(C)=C\C=C\[C@H](C)[C@H](O)[C@@H](C)[C@@H](O)[C@@H](C)[C@H](OC(C)=O)[C@@H]1C)C4=O (stereo partly specified)	53%
C=CCCCCCCCCC(=O)N1C2=C3NC(=O)/C(C)=C\C=C\[C@H](C)[C@H](O)[C@@H](C)[C@@H](O)[C@@H](C)[C@H](OC(C)=O)[C@H](C)[C@@H](OC)/C=C/O[C@@]4(C)Oc5c(C)c(O)c(c(c5C4=O)C2=NC12CCN(CC(C)C)CC2)C3=O	> 99%
CO[C@H]1/C=C/O[C@@]2(C)Oc3c(C)c(O)c4c(c3C2=O)C2=NC3(CCN(CC(C)C)CC3)N(C(C)=O)C2=C(NC(=O)/C(C)=C\C=C\[C@H](C)[C@H](O)[C@@H](C)[C@@H](O)[C@@H](C)[C@H](OC(C)=O)[C@@H]1C)C4=O	> 99%
CO[C@H]1/C=C/O[C@@]2(C)Oc3c(C)c(O)c4c(c3[C@H]2O)C2=NC3(CCN(CC(C)C)CC3)NC2=C(NC(=O)/C(C)=C\C=C\[C@H](C)[C@H](O)[C@@H](C)[C@@H](O)[C@@H](C)[C@H](OC(C)=O)[C@@H]1C)C4=O	> 99%
CO[C@H]1/C=C/O[C@@]2(C)Oc3c(C)c(O)c4c(c3C2=O)C2=NC3(CCN(CC(C)C)CC3)NC2=C(NC(=O)/C(C)=C\C=C\[C@H](C)[C@H](O)[C@@H](C)[C@@H](O)[C@@H](C)[C@H](O)[C@@H]1C)C4=O	> 99%

Give its inhibition at 400 µg/mL value. Item: CO[C@H]1/C=C/O[C@@]2(C)Oc3c(C)c(O)c4c(c3[C@H]2O)C2=NC3(CCN(CC(C)C)CC3)N(C(C)=O)C2=C(NC(=O)/C(C)=C\C=C\[C@H](C)[C@H](O)[C@@H](C)[C@@H](O)[C@@H](C)[C@H](OC(C)=O)[C@@H]1C)C4=O
> 99%

---

Measured MIC accompanies every entry in the list below.
test system: Mycobacterium tuberculosis; test: Antimycobacterial activity against Mycobacterium tuberculosis H37Rv after 7 days by resazurin method; type: functional; details: 168 h
State just the number; it will be interpreted in µg/mL.

Fill in the recorded MIC for this compound, with Mycobacterium tuberculosis as test system: C=CCCCCCCCCC(=O)N1C2=C3NC(=O)/C(C)=C\C=C\[C@H](C)[C@H](O)[C@@H](C)[C@@H](O)[C@@H](C)[C@H](OC(C)=O)[C@H](C)[C@@H](OC)/C=C/O[C@@]4(C)Oc5c(C)c(O)c(c(c5C4=O)C2=NC12CCN(CC(C)C)CC2)C3=O
0.1

Here is the next compound: CO[C@H]1/C=C/O[C@@]2(C)Oc3c(C)c(O)c4c(c3[C@H]2O)C2=NC3(CCN(CC(C)C)CC3)N(C(C)=O)C2=C(NC(=O)/C(C)=C\C=C\[C@H](C)[C@H](O)[C@@H](C)[C@@H](O)[C@@H](C)[C@H](OC(C)=O)[C@@H]1C)C4=O
0.1

Here is the next compound: CO[C@H]1/C=C/O[C@@]2(C)Oc3c(C)c(O)c4c(c3[C@H]2O)C2=NC3(CCN(CC(C)C)CC3)NC2=C(NC(=O)/C(C)=C\C=C\[C@H](C)[C@H](O)[C@@H](C)[C@@H](O)[C@@H](C)[C@H](O)[C@@H]1C)C4=O
0.2

---

Measured Selectivity ratio accompanies every entry in the list below.
assay: Selectivity index, ratio of IC50 for african green monkey Vero cells to MIC for non-replicating Mycobacterium tuberculosis; format: functional

Guide cases for Selectivity ratio, answers given:
MOLECULE	OBS_VALUE
CO[C@H]1/C=C/O[C@@]2(C)Oc3c(C)c(O)c4c(c3C2=O)C2=NC3(CCN(CC(C)C)CC3)N(C(C)=O)C2=C(NC(=O)/C(C)=C\C=C\[C@H](C)[C@H](O)[C@@H](C)[C@@H](O)[C@@H](C)[C@H](OC(C)=O)[C@@H]1C)C4=O	>331
C=CCCCCCCCCC(=O)N1C2=C3NC(=O)/C(C)=C\C=C\[C@H](C)[C@H](O)[C@@H](C)[C@@H](O)[C@@H](C)[C@H](OC(C)=O)[C@H](C)[C@@H](OC)/C=C/O[C@@]4(C)Oc5c(C)c(O)c(c(c5C4=O)C2=NC12CCN(CC(C)C)CC2)C3=O	462

Shifting focus to the molecule that follows.
Give its Selectivity ratio value. Item: CO[C@H]1/C=C/O[C@@]2(C)Oc3c(C)c(O)c4c(c3C2=O)C2=NC3(CC[N+]([O-])(CC(C)C)CC3)NC2=C(NC(=O)/C(C)=C\C=C\[C@H](C)[C@H](O)[C@@H](C)[C@@H](O)[C@@H](C)[C@H](OC(C)=O)[C@@H]1C)C4=O (stereo partly drawn)
>82

---

test system: Mycobacterium tuberculosis; assay: Antimycobacterial activity against Mycobacterium tuberculosis H37Rv after 7 days by resazurin method; assay type: functional; settings: 168 h
Measured MIC accompanies every entry in the list below.
State just the number; it will be interpreted in µg/mL.

Guide cases for MIC, answers given:
COMPOUND	UNIT_TAG	MIC
CO[C@H]1/C=C/O[C@@]2(C)Oc3c(C)c(O)c4c(c3C2=O)C2=NC3(CC[N+]([O-])(CC(C)C)CC3)NC2=C(NC(=O)/C(C)=C\C=C\[C@H](C)[C@H](O)[C@@H](C)[C@@H](O)[C@@H](C)[C@H](O)[C@@H]1C)C4=O (stereo partly drawn)	µg/mL	0.6
CO[C@H]1/C=C/O[C@@]2(C)Oc3c(C)c(O)c4c(c3C2=O)C2=NC3(CCN(CC(C)C)CC3)NC2=C(NC(=O)/C(C)=C\C=C\[C@H](C)[C@H](O)[C@@H](C)[C@@H](O)[C@@H](C)[C@H](O)[C@@H]1C)C4=O	µg/mL	0.025
CO[C@H]1/C=C/O[C@@]2(C)Oc3c(C)c(O)c4c(c3C2=O)C2=NC3(CC[N+]([O-])(CC(C)C)CC3)NC2=C(NC(=O)/C(C)=C\C=C\[C@H](C)[C@H](O)[C@@H](C)[C@@H](O)[C@@H](C)[C@H](OC(C)=O)[C@@H]1C)C4=O (stereo partly drawn)	µg/mL	0.2
CO[C@H]1/C=C/O[C@@]2(C)Oc3c(C)c(O)c4c(c3[C@H]2O)C2=NC3(CC[N+]([O-])(CC(C)C)CC3)NC2=C(NC(=O)/C(C)=C\C=C\[C@H](C)[C@H](O)[C@@H](C)[C@@H](O)[C@@H](C)[C@H](OC(C)=O)[C@@H]1C)C4=O (stereo partly drawn)	µg/mL	0.6

Shifting focus to the compound that follows.
Give its MIC value. Item: CCCCCCCCCCCCCCCC(=O)N1C2=C3NC(=O)/C(C)=C\C=C\[C@H](C)[C@H](O)[C@@H](C)[C@@H](O)[C@@H](C)[C@H](OC(C)=O)[C@H](C)[C@@H](OC)/C=C/O[C@@]4(C)Oc5c(C)c(O)c(c(c5C4=O)C2=NC12CCN(CC(C)C)CC2)C3=O
0.1
